- ASSAY_PROTOCOL: Sweetening potency: taste comparison of aqueous solutions with sucrose control solution (2%, 5% or 10%) by a group of eight experienced people
- Format: in vivo
- CONDITION_DETAILS: with respect to a 2% sucrose solution

>  <MOLECULE>
CC[C@@H](NC(=O)[C@H](CC(=O)O)NCCC(C)(C)C)C(=O)N[C@@H](C)c1ccccc1 [Y = C2 H5, R" = (S) CH(CH3)C6 H5]

>  <Sweetening potency>
2,000 times that of sucrose on a wei

$$$$

----------
# half-life per entry
- ASSAY_PROTOCOL: Accelerated ageing in acidic medium (phosphate buffer pH 3, 70° C.), HPLC of product remaining
- Assay type: physicochemical
- CONDITION_DETAILS: aqueous solution, read-out: half-life (time corresponding to 50% degradation) (converted)
Residues, ends and D or L forms follow the SMILES beside them.

>  <COMPOUND>
COC(=O)[C@H](Cc1ccccc1)NC(=O)[C@@H](N)CC(=O)O [aspartame, L-aspartyl-L-phenylalanine methyl ester, reference compound] (HELM PEPTIDE1{D.F.[CO[*:1]]}$$$$V2.0)

>  <half-life>
~24 h

$$$$
>  <COMPOUND>
CC[C@H](NC(=O)[C@@H](CC)NC(=O)[C@H](CC(=O)O)NCCC(C)(C)C)c1ccccc1

>  <half-life>
~72 h

$$$$

----------
- ASSAY_PROTOCOL: Accelerated ageing in neutral medium (phosphate buffer pH 7, 70° C.), HPLC of product remaining
- Format: physicochemical
- CONDITION_DETAILS: phosphate buffer; pH 7, 70° C.; read-out: half-life (time corresponding to 50% degradation) (converted)
Residues, ends and D or L forms follow the SMILES beside them.
TEST_READOUT: half-life

>  <COMPOUND>
COC(=O)[C@H](Cc1ccccc1)NC(=O)[C@@H](N)CC(=O)O [aspartame, L-aspartyl-L-phenylalanine methyl ester, reference compound] (HELM PEPTIDE1{D.F.[CO[*:1]]}$$$$V2.0)

>  <TEST_READOUT>
half-life

>  <MEAS_VALUE>
0.167 h

$$$$
>  <COMPOUND>
CC[C@H](NC(=O)[C@@H](CC)NC(=O)[C@H](CC(=O)O)NCCC(C)(C)C)c1ccccc1

>  <TEST_READOUT>
half-life

>  <MEAS_VALUE>
~288 h

$$$$
